Values compiled from PubChem BioAssay AID2060902.

What viability, T/C was measured for each of the following?
# Tested on: 485368-065-R3-J5-PDC spheroids with HUVEC/MSC, viability
# assay.info: Anticancer human tumor 485368-065-R3-J5-PDC patient-derived pancreatic carcinoma cell line growth inhibition [RAS]
# test.conditions: second compound 0.003 µM; first compound 0.003 µM; hits give low values
Hi! Could you send only the number? It should be in %, unit omitted.

Returns the measured viability, T/C for the input compound. Input: CCc1c2c(nc3ccc(O)cc13)-c1cc3c(c(=O)n1C2)COC(=O)[C@]3(O)CC + CCn1c(-c2cccnc2C(C)OC)c2c3cc(ccc31)N1CCOC(CC(NC(=O)C(C(C)C)N(C)C(=O)C3(F)CCN(C(=O)C#CC(C)(C)N(C)C)CC3)C(=O)N3CCCC(N3)C(=O)OCC(C)(C)C2)C1
39.3

Returns the measured viability, T/C for the input compound. Input: CCc1c2c(nc3ccc(O)cc13)-c1cc3c(c(=O)n1C2)COC(=O)[C@]3(O)CC + CCn1c(-c2cc(N3CCN(C)CC3)cnc2C(C)OC)c2c3cc(ccc31)-c1csc(n1)CC(NC(=O)C1CC1C)C(=O)N1CCCC(N1)C(=O)OCC(C)(C)C2
13.6

Returns the measured viability, T/C for the input compound. Input: CC1(C)CCC(Nc2ncc(C(F)(F)F)c(-c3c[nH]c4c(P(C)(C)=O)c(C#N)ccc34)n2)CN1 (centres undefined) + CCn1c(-c2cc(N3CCN(C)CC3)cnc2C(C)OC)c2c3cc(ccc31)-c1csc(n1)CC(NC(=O)C1CC1C)C(=O)N1CCCC(N1)C(=O)OCC(C)(C)C2
26.2

Returns the measured viability, T/C for the input compound. Input: CC1(C)CCC(Nc2ncc(C(F)(F)F)c(-c3c[nH]c4c(P(C)(C)=O)c(C#N)ccc34)n2)CN1 (centres undefined) + CCn1c(-c2cccnc2C(C)OC)c2c3cc(ccc31)N1CCOC(CC(NC(=O)C(C(C)C)N(C)C(=O)C3(F)CCN(C(=O)C#CC(C)(C)N(C)C)CC3)C(=O)N3CCCC(N3)C(=O)OCC(C)(C)C2)C1
73.9

====

# Test system: 485368-065-R3-J5-PDC spheroids with HUVEC/MSC, viability
# assay.info: Anticancer human tumor 485368-065-R3-J5-PDC cell line growth inhibition [RAS]; active = viability on the fitted dose curve at most 10% of control; inactive = the rest;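 also: spheroids exposed to agents for seven days before readout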
# test.conditions: second compound 0.3 µM; first compound 1 µM
Outcomes you can answer with include only these: active, inactive

Look up the recorded call for CC(=O)OC12COC1CC(O)C1(C)C(=O)C(O)C3=C(C)C(OC(=O)C(O)C(NC(=O)OC(C)(C)C)c4ccccc4)CC(O)(C(OC(=O)c4ccccc4)C21)C3(C)C (stereo not drawn) + CCn1c(-c2cc(N3CCN(C)CC3)cnc2C(C)OC)c2c3cc(ccc31)-c1csc(n1)CC(NC(=O)C1CC1C)C(=O)N1CCCC(N1)C(=O)OCC(C)(C)C2 in this test.
active

Look up the recorded call for C[C@@H](NC(=O)c1ncnc(N)c1Cl)c1ncc(C(=O)Nc2cc(C(F)(F)F)c(Cl)cn2)s1 + CCn1c(-c2cccnc2C(C)OC)c2c3cc(ccc31)N1CCOC(CC(NC(=O)C(C(C)C)N(C)C(=O)C3(F)CCN(C(=O)C#CC(C)(C)N(C)C)CC3)C(=O)N3CCCC(N3)C(=O)OCC(C)(C)C2)C1 in this test.
inactive

Look up the recorded call for Cc1nc(N2CCC3(CC2)COC(C)C3N)c(CO)nc1Sc1ccnc(N)c1Cl (stereo not drawn) + CCn1c(-c2cccnc2C(C)OC)c2c3cc(ccc31)N1CCOC(CC(NC(=O)C(C(C)C)N(C)C(=O)C3(F)CCN(C(=O)C#CC(C)(C)N(C)C)CC3)C(=O)N3CCCC(N3)C(=O)OCC(C)(C)C2)C1 in this test.
inactive

Look up the recorded call for CC(C)NCC(C(=O)N1CCN(c2ncnc3c2C(C)CC3O)CC1)c1ccc(Cl)cc1 (stereo not drawn) + CCn1c(-c2cc(N3CCN(C)CC3)cnc2C(C)OC)c2c3cc(ccc31)-c1csc(n1)CC(NC(=O)C1CC1C)C(=O)N1CCCC(N1)C(=O)OCC(C)(C)C2 in this test.
active

Look up the recorded call for C=CC(=O)Nc1cc(Nc2nccc(-c3cn(C)c4ccccc34)n2)c(OC)cc1N(C)CCN(C)C + CCn1c(-c2cc(N3CCN(C)CC3)cnc2C(C)OC)c2c3cc(ccc31)-c1csc(n1)CC(NC(=O)C1CC1C)C(=O)N1CCCC(N1)C(=O)OCC(C)(C)C2 in this test.
active

Look up the recorded call for CCC(CC)c1cc(NC2CCC(N)C2)n2nccc2n1 (stereo not drawn) + CCn1c(-c2cc(N3CCN(C)CC3)cnc2C(C)OC)c2c3cc(ccc31)-c1csc(n1)CC(NC(=O)C1CC1C)C(=O)N1CCCC(N1)C(=O)OCC(C)(C)C2 in this test.
inactive

Look up the recorded call for CCN1CCN(Cc2ccc(Nc3ncc(F)c(-c4cc(F)c5nc(C)n(C(C)C)c5c4)n3)nc2)CC1 + CCn1c(-c2cccnc2C(C)OC)c2c3cc(ccc31)N1CCOC(CC(NC(=O)C(C(C)C)N(C)C(=O)C3(F)CCN(C(=O)C#CC(C)(C)N(C)C)CC3)C(=O)N3CCCC(N3)C(=O)OCC(C)(C)C2)C1 in this test.
inactive

Look up the recorded call for CC(C)NCC(C(=O)N1CCN(c2ncnc3c2C(C)CC3O)CC1)c1ccc(Cl)cc1 (stereo not drawn) + CCn1c(-c2cccnc2C(C)OC)c2c3cc(ccc31)N1CCOC(CC(NC(=O)C(C(C)C)N(C)C(=O)C3(F)CCN(C(=O)C#CC(C)(C)N(C)C)CC3)C(=O)N3CCCC(N3)C(=O)OCC(C)(C)C2)C1 in this test.
inactive
